# MEASURED ON: T1, Human recombinant BMP-2 with hexahistidine-tag fused at the C-terminus (AdipoGen) (human, UniProt P12643 283-396)
# T1 construct: Immobilised on a Ni2+-NTA chip for SPR; also called His-BMP-2; hexahistidine-tagged BMP-2
# T1 sequence: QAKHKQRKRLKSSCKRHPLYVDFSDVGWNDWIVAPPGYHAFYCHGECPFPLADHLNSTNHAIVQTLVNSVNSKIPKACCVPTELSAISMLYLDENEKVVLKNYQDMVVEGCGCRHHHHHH
# PROTOCOL: SPR (Biacore 3000), His-BMP-2 immobilised on Ni2+-NTA chip, PA injected at pH 8.4, 2:1 binding model, KD from the major dissociation rate and ka; diluent PA (no binding segment), prepared at pH 8.4
C16 = C16 alkyl tail covalently attached at the N-terminus
MEASURED QUANTITY: Kd (nM)
// units = nM; emit number, no label

Q: Which value of Kd has been reported for C16-VVVAAAEEE-OH (In SPR it was used as a solution at pH 8.4; In the capture assay it was a 1 wt % nanofiber gel formed with CaCl2; also called diluent PA gel) [diluent PA, C16-V3A3E3-COOH] in the records?
Ans: 2100
